# System: TK-10
# assay: NCI tumour cell line growth inhibition, 48 h
The source made the active and inactive calls. Cut-off read from the data, not from the text of the source: active = GI50 up to about 1.1 µM and inactive = higher.
Item-by-item account of GI50

Examples with answers:
molecule=COc1ccc2c(CC(=O)O)cc(=O)oc2c1 experimental_result="> 100 µM (inactive)"
molecule="CC#CC#C/C=C1/O[C@]2(CCC(OC(=O)CC(C)C)CO2)[C@@H]2O[C@H]12 (some centres undefined)" experimental_result="25.7 µM (inactive)"
molecule="O=C1CSC2(CC(/C=C/c3ccccc3Br)=NN2c2cccc(S(=O)(=O)O)c2)N1c1nc2ccccc2s1 (centres undefined)" experimental_result="45.7 µM (inactive)"
molecule="N=C(N)NCCCC(NCc1c2ccccc2[n+]([O-])c2ccccc12)C(=O)O (centres undefined)" experimental_result="> 100 µM (inactive)"
molecule="NP(=O)(OCC1=CC(=O)c2ccccc2C1=O)N(CCBr)CCBr (centres undefined)" experimental_result="17.2 µM (inactive)"

Req: Entry under review: O=c1cc(N2CCCC2)[nH]c(=O)n1-c1cccc(Cl)c1 . Reported GI50?
Resp: > 100 µM (inactive)

Req: Can you check Cc1nc(C(=O)O)c2ccccc2n1 next?
Resp: > 100 µM (inactive)

Req: Can you check Cc1cc(-c2ccc(C(=O)O)[nH]2)on1 next?
Resp: > 100 µM (inactive)

Req: Can you check CC1=C2C(O)C(C(C)CO)C(O)CC2(C)C(O)CC1 (centres undefined) next?
Resp: > 100 µM (inactive)

Req: Can you check CC1=NC(=Cc2ccccc2O)C(=O)N1n1c(-c2ccccc2)nc2ccccc2c1=O next?
Resp: 39.4 µM (inactive)

Req: Can you check CCOC(OCC)(OCC)C(Br)CC (centres undefined) next?
Resp: > 100 µM (inactive)

Req: Can you check CC(O)(C#N)CC(O)(C(F)(F)Cl)C(F)(F)Cl (centres undefined) next?
Resp: > 10 µM (inactive)

###

# Test system: MOLT-4
# assay: NCI tumour cell line growth inhibition, 48 h
The source made the active and inactive calls. Cut-off read from the data, not from the text of the source: active = GI50 up to about 1.1 µM and inactive = higher.
Field 'call' accepts active, inactive

compound="Cc1c(O)c(OC2OC(CO)C(O)C(O)C2O)cc2c1CC[C@@H]1C2(C)C(=O)C[C@]2(C)[C@@H]([C@@](C)(O)C3CCC(C)(C)O3)[C@H](O)C[C@@]12C (stereo partly drawn)" assigned_class=inactive
compound=CCC(/C=C/c1ccccc1)=N\NC(=S)N/N=C(/C=C/c1ccccc1)CC assigned_class=inactive
compound=CNCCCn1c2ccccc2c2c3c(c(-c4ccsc4)cc21)C(=O)NC3=O assigned_class=inactive
compound="COC(=O)/C=C(\\C(=O)OC)C1C(=O)Oc2c(C)c(=O)c3ccccc3n21 (stereo not drawn)" assigned_class=inactive
compound="CN(C)CCN1CCc2c([nH]c3ccccc23)C1c1cccnc1 (stereo not drawn)" assigned_class=inactive

Req: Field: outcome | Entry: C/C=C(/C)C(=O)O[C@@H]1c2c(C)coc2C[C@H]2CC[C@H](O)[C@H](C)[C@]21C
Resp: inactive

Req: Can you check CC1=CC(=O)c2c(C=O)c(O)c(O)c(C(C)C)c2C1=O next?
Resp: inactive

Req: Can you check CCOC(=O)/C(=C/c1ccccn1)C(=O)c1ccccc1 next?
Resp: inactive

Req: Can you check Cc1cccc2c1C(=O)OC2(c1cccc2ccccc12)c1cccc2ccccc12 next?
Resp: inactive

###

# System: SW-620
# assay: NCI tumour cell line growth inhibition, 48 h
Calls of active or inactive are those of the source. Cut-off read from the data, not from the text of the source: active = GI50 up to about 1.1 µM and inactive = higher.
Field 'call' accepts active, inactive

Sample answers from the record:
molecule=CC1=C(c2cc(C(=O)Nc3ccc(Cl)c(Cl)c3)nc(N)n2)Sc2ccccc2N1 assigned_class=inactive
molecule="COc1ccc(C2=NNC(c3cc4cc(Br)ccc4nc3Cl)C2)cc1 (centres undefined)" assigned_class=inactive
molecule="N=C(N)NCCCC(NCc1c2ccccc2[n+]([O-])c2ccccc12)C(=O)O (centres undefined)" assigned_class=inactive
molecule=CC(=O)CCC[C@H](C)[C@@H](O)[C@@H]1O[C@H]([C@@]2(C)CCC(=O)O2)C[C@H]1C(=O)O assigned_class=inactive
molecule="COc1cc(C2c3cc4c(cc3OC(NNc3ccccc3)C2C)OCO4)cc(OC)c1O (centres undefined)" assigned_class=inactive

Req: Field: outcome | Entry: Cc1cccc2c1C(=O)OC2(c1cccc2ccccc12)c1cccc2ccccc12
Resp: inactive

###

# System: SK-MEL-28
# assay: NCI tumour cell line growth inhibition, 48 h
Activity calls are given as the source filed them. Cut-off read from the data, not from the text of the source: active = GI50 up to about 1.1 µM and inactive = higher.
Field 'call' accepts active, inactive

Sample answers from the record:
compound="CC(C)[C@]12O[C@H]1[C@@H]1O[C@]13[C@]1(O[C@H]1C[C@H]1C4=C(CC[C@@]13C)C(=O)OC4)[C@@H]2O [TRIPTOLIDE]" assigned_class=active
compound=CCc1nnc(-n2c(C)nc3cc(Cl)ccc3c2=O)s1 assigned_class=inactive
compound="Cc1c(O)c(OC2OC(CO)C(O)C(O)C2O)cc2c1CC[C@@H]1C2(C)C(=O)C[C@]2(C)[C@@H]([C@@](C)(O)C3CCC(C)(C)O3)[C@H](O)C[C@@]12C (some centres undefined)" assigned_class=inactive
compound="CN1C/C(=C\\c2cccs2)C2=NC(=S)NC(c3cccs3)C2C1 (centres undefined)" assigned_class=inactive
compound=CCOC(=O)Cn1c2ccc(Br)cc2c2nc3ccccc3nc21 assigned_class=inactive
compound="O=[N+]([O-])[C@@H]1C2C=CC(C2)[C@H]1Cl (some centres undefined)" assigned_class=inactive

Req: Field: outcome | Entry: c1cc(C[S+]2CCCC2)ccc1C[S+]1CCCC1
Resp: inactive

Req: Can you check CN(C)CCNC(=O)c1cccc2c1Oc1cccc([N+](=O)[O-])c1O2 next?
Resp: inactive

Req: Can you check N=C(N)NC(=N)Nc1ccccc1.Sc1nc2ccccc2s1 next?
Resp: inactive

###

# System: SW-620
# assay: NCI tumour cell line growth inhibition, 48 h
Active and inactive are the calls of the source. Cut-off read from the data, not from the text of the source: active = GI50 up to about 1.1 µM and inactive = higher.
Field 'call' accepts active, inactive

compound="CC(=O)OCC1OC(Nc2nc(O)n(C)c(=O)c2-c2csc(N)n2)C(OC(C)=O)C(OC(C)=O)C1OC(C)=O (configuration not stated)" assigned_class=inactive

Req: Field: outcome | Entry: COc1cc(C2c3cc(O)c(OC)cc3C3OCC2C3CO)ccc1O (configuration not stated)
Resp: inactive

Req: Can you check Nn1c(-c2ccccc2Cl)nc2ccccc2c1=O next?
Resp: inactive

###

Item-by-item account of GI50
# Tested on: SK-MEL-5
# assay: NCI tumour cell line growth inhibition, 48 h
Active and inactive are the calls of the source. Cut-off read from the data, not from the text of the source: active = GI50 up to about 1.1 µM and inactive = higher.

Examples with answers:
compound="COc1cc(C2c3cc(O)c(OC)cc3C3OCC2C3CO)ccc1O (centres undefined)" property_label=GI50 experimental_result="> 100 µM (inactive)"
compound="CCOC(=O)CC1CCN(C(=O)c2ccccc2)C2Cc3c([nH]c4ccccc34)C12C[N+](=O)[O-] (centres undefined)" property_label=GI50 experimental_result="57.8 µM (inactive)"
compound=CCCCCCCCCCCCCCCCC1=CC(=O)C=C(OC)C1=O property_label=GI50 experimental_result="> 100 µM (inactive)"

Now for the compound whose GI50 we want.
Req: Entry under review: COC1OC(CBr)C(OC(c2ccccc2)(c2ccccc2)c2ccccc2)C(OC(c2ccccc2)(c2ccccc2)c2ccccc2)C1OC(c1ccccc1)(c1ccccc1)c1ccccc1 (centres undefined) . Reported GI50?
Resp: 66.5 µM (inactive)

###

Item-by-item account of GI50
# Tested on: U-251
# assay: NCI tumour cell line growth inhibition, 48 h
The source made the active and inactive calls. No stated cut-off is given here; in the data, active = GI50 up to about 1.1 µM and inactive = higher.

compound=N#Cc1cc2c(cc1Cl)Sc1nnc(Nc3ccccc3)n1S2(=O)=O property_label=GI50 experimental_result="1.87 µM (inactive)"
compound="O=C(O)C(CCc1ccccn1)c1ccccc1 (stereo unspecified)" property_label=GI50 experimental_result="> 100 µM (inactive)"
compound=COc1cc(Cn2c3c(c4cc(O)ccc42)C(=O)c2ccccc2C3=O)cc(OC)c1 property_label=GI50 experimental_result="3.6 µM (inactive)"
compound="OC1CCCC1C(O)(C(F)(F)F)C(F)(F)F (stereo unspecified)" property_label=GI50 experimental_result="> 100 µM (inactive)"
compound=Cc1nc(C(=O)O)c2ccccc2n1 property_label=GI50 experimental_result="> 100 µM (inactive)"

Req: Entry under review: COc1ccc2c(CC(=O)O)cc(=O)oc2c1 . Reported GI50?
Resp: > 100 µM (inactive)

###

# Test system: HCT-116
# assay: NCI tumour cell line growth inhibition, 48 h
Active and inactive are the calls of the source. No stated cut-off is given here; in the data, active = GI50 up to about 1.1 µM and inactive = higher.
Field 'call' accepts T = active, F = inactive

molecule="CC(ON(C(c1ccccc1)C(C)C)C(C)(C)C)c1ccccc1 (stereo unspecified)" assigned_class=F
molecule=O=[N+]([O-])c1cc2c(c([N+](=O)[O-])c1)NCc1ccccc1O2 assigned_class=F
molecule="CC(=O)[C@@]1(C)CC2(CCN(C)CC2)OC1C (stereo partly specified)" assigned_class=F
molecule=O=C1/C(=N/CCc2cc(Br)c(O)c(Br)c2)C=C(O)c2cccnc21 assigned_class=F
molecule="Cc1nc(=O)[nH]c2c1C(=O)N(C(C)C)C(NC(C)C)S2 (stereo unspecified)" assigned_class=F
molecule="Cc1cccc(/N=C2\\NC(=O)C(CC(=O)Nc3ccc(C)cc3C)S2)c1 (stereo unspecified)" assigned_class=F
molecule=CC(=O)OCc1ncccc1C(OC(C)=O)OC(C)=O assigned_class=F
molecule=Oc1ccc(/N=C/c2ccc(/C=N/c3ccc(O)cc3)cc2)cc1 assigned_class=F

Req: Field: outcome | Entry: CC(C)Cn1cnc2c(Sc3c([N+](=O)[O-])ncn3C)nc(N)nc21
Resp: F

Req: Can you check COc1cc2c(cc1OC)[Se]c1cc(OC)c(OC)cc1[Se]2 next?
Resp: F

Req: Can you check C/C(=C1/N=C(c2cc([N+](=O)[O-])ccc2Cl)N(C2=CC=C(Cl)CC2)C1=O)c1cc2ccccc2oc1=O next?
Resp: F

Req: Can you check S=C(Nc1ccccc1)Nc1ccccc1SC(/C=C/NNC1=NN=C(c2ccccc2)C(c2ccccc2)N1)c1ccccc1 (stereo unspecified) next?
Resp: F

Req: Can you check Cc1ccc(C(=O)CC(Cl)=C(Cl)Cl)cc1 next?
Resp: F
